Tested on: SARS-CoV-2 Omicron BA.1
Method summary: microbe, parasite or virus in culture
Format: cell-based
Setup conditions: Calu-3 cells, Omicron BA.1, at the concentrations tested
Reported property: inhibition of SARS-CoV-2 Omicron, dsRNA and nucleocapsids as indicators of viral load

Before answering, review these 6 worked examples.
| Compound | Result |
| --- | --- |
| CCCCCCCCCC[C@H]1CCC[C@]2(C=C(CO)[C@H]3CC(=O)C(C)=C[C@H]3O2)O1 [Compound I10-Dec01] | no inhibition activity |
| CCCCCCCCCC[C@@H]1CCC[C@]2(C=C(CO)[C@H]3CC(=O)C(C)=C[C@H]3O2)O1 [Compound I10-Dec02] | good inhibition |
| CC(C)=CCC(C)CCCC1CCC[C@]2(C=C(CO)[C@H]3CC(=O)C(C)=C[C@H]3O2)O1 (stereo in doubt) [Compound I10-Cit4] | good inhibition |
| CCCCCCCCCCCC[C@@H]1CCC[C@]2(C=C(CO)[C@H]3CC(=O)C(C)=C[C@H]3O2)O1 [Compound I10-DD2] | good inhibition |
| CCCCCCCC[C@@H]1CCC[C@]2(C=C(CO)[C@H]3CC(=O)C(C)=C[C@H]3O2)O1 [Compound I10-Oct] | good inhibition |
| CC(C)=CCC(C)CCCC1CCC[C@]2(C=C(CO)[C@H]3CC(=O)C(C)=C[C@H]3O2)O1 (stereo in doubt) [Compound I10-Cit3] | no inhibition activity |

Would you kindly look at the next entry?
Req: Look up inhibition of SARS-CoV-2 Omicron, dsRNA and nucleocapsids as indicators of viral load of CC1=C[C@H]2O[C@]3(C=C(CO)[C@H]2CC1=O)CCCCO3 [Compound I10-H] and report it.
Resp: no inhibition activity
